ASSAY_NAME: A CellTox Green Cytotoxicity Assay to monitor cytotoxicity in HepG2 cells - 8 hour (AID 1224890); note: nearly all actives have a fitted effect of over 45% in size
CONDITION_DESCRIPTION: CellTox Green fluorescence; series mostly up to 76.8 µM
Results filed as inconclusive are left out. The source made the active and inactive calls. Calls come from the whole dose curve; as a rule, active = well fitted activation curve with a large enough effect in the repeat runs; inconclusive = weak or mixed curves; inactive = flat fitted curve, though single readings scatter.
The categories you may choose from are active, inactive

Solved cases below.
{"COMPOUND": "C1CCC2CCCCC2C1 (stereo not drawn)", "CLASS_LABEL": "inactive"}
{"COMPOUND": "Nc1ccc(Cl)cc1C(=O)c1ccccc1", "CLASS_LABEL": "inactive"}
{"COMPOUND": "COc1cc(C=O)cc2c1[C@H](COC(N)=O)[C@]1(OC(C)=O)ON2C[C@H]2[C@@H]1N2C(C)=O", "CLASS_LABEL": "inactive"}
{"COMPOUND": "CC(C)CCCCCOC(=O)c1ccccc1C(=O)OCCCCCC(C)C", "CLASS_LABEL": "inactive"}
{"COMPOUND": "BrCBr", "CLASS_LABEL": "inactive"}
{"COMPOUND": "CCCCCCCCCCCCCCC(Br)C(=O)O (stereo not drawn)", "CLASS_LABEL": "inactive"}
{"COMPOUND": "CCN(CC)C(=S)[S-].CCN(CC)C(=S)[S-].[Zn+2]", "CLASS_LABEL": "inactive"}
{"COMPOUND": "CC(Cl)CN(C)C (stereo not drawn)", "CLASS_LABEL": "inactive"}

-- ask Per the records of this test, what outcome belongs to `CCCCN(CCCC)C(=S)[S-].CCCCN(CCCC)C(=S)[S-].[Zn+2]` ?
-- reply inactive

-- ask Field entry: `CN(CCCC(=O)c1cccnc1)N=O`
-- reply inactive
